This listing pairs substances with measured pEC50.
Target: hGLP-1R (Homo sapiens, UniProt P43220)
Sequence (P43220 24-463): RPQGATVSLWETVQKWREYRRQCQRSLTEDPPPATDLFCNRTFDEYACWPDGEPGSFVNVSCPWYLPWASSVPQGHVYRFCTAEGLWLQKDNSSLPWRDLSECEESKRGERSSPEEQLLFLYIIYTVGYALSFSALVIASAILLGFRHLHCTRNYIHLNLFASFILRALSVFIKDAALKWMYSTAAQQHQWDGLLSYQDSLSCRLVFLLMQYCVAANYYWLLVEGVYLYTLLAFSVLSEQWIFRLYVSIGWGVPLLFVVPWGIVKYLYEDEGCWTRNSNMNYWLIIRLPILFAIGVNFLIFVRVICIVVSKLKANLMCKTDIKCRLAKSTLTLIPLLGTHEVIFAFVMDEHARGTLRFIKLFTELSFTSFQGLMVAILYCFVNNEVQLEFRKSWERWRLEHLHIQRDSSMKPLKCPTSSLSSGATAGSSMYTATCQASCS
Test: Functional cAMP activation in the presence of 0.1% casein (no HSA);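 further: intracellular cAMP rise after 30 min at 37 °C read by HTRF, normalized between buffer only (0%) and maximal control ligand (100%), four-parameter variable-slope fit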
Assay type: cell-based
Settings: in the presence of 0.1% casein (no HSA); geometric mean; read-out: Relative cAMP EC50, hGLP-1R
Starred links: 1 amine or outer side, 2 acyl side, 3 side chain; linkers in the order of their positions; H or OH if unused. Non-standard residues stand in square brackets, D forms with d. Groups on a side chain read outwards from the residue. *: point of attachment. C18 diacid = O=C(O)CCCCCCCCCCCCCCCCC(=O)*; αMePhe(2-F) = C[C@](N)(Cc1ccccc1F)C(=O)O; γGlu = O=C(O)[C@H](CCC(=O)[*:2])N[*:1]; αMe4Pal = C[C@](N)(Cc1ccncc1)C(=O)O; αMeY = C[C@](N)(Cc1ccc(O)cc1)C(=O)O; 4Pal = N[C@@H](Cc1ccncc1)C(=O)O; αMeL = CC(C)C[C@](C)(N)C(=O)O; αMeS = C[C@](N)(CO)C(=O)O; Orn = NCCC[C@H](N)C(=O)O; AEEA = NCCOCCOCC(=O)O; Aib = CC(C)(N)C(=O)O
# log scale: pEC50 equals minus log10 of the concentration in mol/L

Below are worked cases with known answers.
SUBSTANCE	QUANTITY_NAME	MEASURED
H-Y[Aib]QGTFTSDFS[Orn][αMeL]LDKK([AEEA-γGlu-C18 diacid])AQ[Aib]AFIEYLLE[dA]GPSS[Aib]APPPSGT-NH2 [Example 214]	pEC50	8.91
H-Y[Aib]QGTFTSDFS[Orn][αMeL]LDKK([γGlu-AEEA-γGlu-C18 diacid])AQ[Aib]AFIEYLLE[Aib]GHSSGAPPPSGS-NH2 [Example 245]	pEC50	8.22
H-Y[Aib]QGT[αMePhe(2-F)]TSD[4Pal][αMeS]I[αMeL]LD[Orn]K([AEEA-γGlu-C18 diacid])AQ[αMe4Pal]EFI[dE][αMeY]LVEGGPSSGEPPPESE-NH2 [Example 1157]	pEC50	9.39

Challenge: What value of pEC50 has been recorded for this entry: H-Y[Aib]QGTFTSD[4Pal]SQ[αMeL]LDKK([γGlu-γGlu-C18 diacid])AQ[αMe4Pal]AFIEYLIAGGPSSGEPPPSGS-NH2 [Example 968]
Response given: 8.98

Challenge: What value of pEC50 has been recorded for this entry: H-Y[Aib]QGT[αMePhe(2-F)]TSD[4Pal][αMeS]I[αMeL]LD[Orn]K([AEEA-γGlu-C18 diacid])AQ[αMe4Pal]EFI[dE][αMeY]LVEGGPSSGEPPPTGE-NH2 [Example 1153]
Response given: 9.48

Challenge: What value of pEC50 has been recorded for this entry: H-Y[Aib]QGTFTSD[4Pal]SK[αMeL]LDKK([γGlu-γGlu-C18 diacid])AQ[Aib]AFIEYLIE[Aib]GPSSGAPPPSGS-NH2 [Example 907]
Response given: 8.94
